# Test system: MT4
# Procedure Details: Effective concentration required to achieve 50% inhibition of HIV-1 IIIB multiplication in hT4 lymphoblastoid MT-4 cells using MTT assay
# Type: functional, cell-based
# Test Conditions: Homo sapiens
Observed Property: pEC50
# log scale: pEC50 equals minus log10 of the concentration in mol/L

Here are 3 compounds together with their reported answers.
INSERT INTO assay_data (compound, system, observed_property, assay_value) VALUES
  ('Nc1ccn([C@H]2CC[C@@H](CO)O2)c(=O)n1', 'MT4', 'pEC50', 5.62),
  ('CCc1c(Sc2cc(C)cc(C)c2)n(CCCCC(=O)NCCCCCCCCCCCCNc2ccn(C3CCC(CO)O3)c(=O)n2)c(=O)[nH]c1=O (stereo not drawn)', 'MT4', 'pEC50', 5.21),
  ('CCOC(=O)CCn1c(=O)c(C)cn(C2CC(N=[N+]=[N-])C(CO)O2)c1=O (stereo not drawn)', 'MT4', 'pEC50', 5.37);

# context switch: different compound, same pEC50
Entry NCCCCCCCCCCCCNc1ccn(C2CCC(CO)O2)c(=O)n1 (stereo not drawn) , system MT4: what pEC50 was measured?
4.00

Numbers sourced from ChEMBL document CHEMBL1133178.
